- System: SW-620 colon
- ASSAY INFO: NCI-60 one-dose screen, 48 h
- MEASUREMENT SETUP: 10 µM unless noted
- Procedure: Growth inhibition of the SW-620 human tumor cell line is measured as a screen for anti-cancer activity. Cells are grown in 96 well plates and exposed to the test compound for 48 hours. Compounds are tested at a single concentration, which is 10^-5 M for most compounds. The reported endpoint is percent growth (GI% or GIPRCNT), where numbers from 0 - 100% represent growth inhibition, and numbers from -100% - 0 represent cell death. For example, a value of 40 represents 60% growth inhibition. […]
The panel holds about 83,000 compounds, 20% with a hit somewhere; the sample as a whole holds those more often. Calls of active or inactive are those of the source. Rule for the calls: active = growth percent below 10; inactive = the rest.
Respond using exactly one of the listed classes: y (active), n (inactive)

Query block: Dear all, I need the recorded test outcome for `O=C(CCCCCCN1CC(=O)N2[C@H](c3ccc(Br)cc3)c3[nH]c4ccccc4c3C[C@@H]2C1=O)NO` , thank you.
Result block: n

Query block: Hi, do you know how `C=CCN1C(=O)c2cccc3c(N4CCOCC4)ccc(c23)C1=O` came out in this test?
Result block: y

Query block: What call does the record list for `N#C/C(=C\C=C\c1ccc(-c2cc(Cl)ccc2Cl)o1)c1nc2ccccc2s1` ?
Result block: n

Query block: Short answer needed: outcome of this test for `O=C(CSc1nnc(-c2cc(-c3ccccc3)nc3ccccc23)n1-c1ccccc1)Nc1ccc(C(=O)/C=C/c2ccc(Cl)cc2)cc1` ?
Result block: n

Query block: So what was the verdict on `O=C(Cc1ccccc1)Nc1cccc(N=Cc2ccccc2O)c1` in this test?
Result block: n

Query block: Please let me know the test result on file for C=C1CC[C@@H]2[C@](C)(COC(C)=O)[C@H](OC(C)=O)CC[C@@]2(C)[C@@H]1CC(Nc1ccc(S(=O)(=O)NC(C)=O)cc1)C1=CCOC1=O (some centres undefined) .
Result block: y

Query block: Hey, what did the test say about `S=c1[nH]c(=S)c2c(-c3ccccc3)c(-c3ccccc3)oc2[nH]1` ?
Result block: n

Query block: What did this assay record as the result for `CCN1CCN(CC(=O)Nc2ccc(-c3cn4c(n3)sc3cc(Oc5ccnc(C(=O)NC)c5)ccc34)cc2)CC1` ?
Result block: y

Query block: Test call for this compound, please: `CCN(CC)CCCOc1ccc2ncnc(Nc3ccc(Oc4cccc(C(F)(F)F)c4)c(Cl)c3)c2c1`
Result block: y

Query block: Returns: the outcome recorded for `COc1ccc2c(c1)c(-c1nc(-c3c[nH]c4ncccc34)cs1)cn2CCO` in this assay.
Result block: n

Query block: Please indicate how the test categorized `O=C(Nc1ccccc1[N+](=O)[O-])c1ccc(Cl)c(Cl)c1` .
Result block: n

Query block: Look up the recorded call for N#Cc1cccc(C2C3=C(COC3=O)N(CCO)c3cc4c(cc32)CCC4)c1 (centres undefined) in this test.
Result block: n

Query block: Outcome? `NS(=O)(=O)c1ccc(-c2cc(-c3nnc(SCC(=O)Nc4ccc(C(=O)/C=C/c5ccc(Cl)cc5)cc4)n3-c3ccccc3)c3ccccc3n2)cc1`
Result block: n

Query block: GET /call?item= `CC(=O)c1ccc(Nc2nccc(-c3ccc4ccccc4c3)n2)cc1` returns the recorded outcome of this test.
Result block: n

Query block: Test call for this compound, please: `O=C(CI)NC(=O)NC(=O)NCc1ccccc1`
Result block: n

Query block: For `CC(=C(c1ccc(OCCN2CCCCC2)cc1)c1ccc(OCCN2CCCCC2)cc1)c1ccc(Cl)cc1` , which call appears in the assay record?
Result block: y

Query block: Give the logged outcome of this assay for the following compound: `Cc1cc2c(cc1C)N(C(=O)CCl)CC(=O)N2`
Result block: y

Query block: Lab log entry: `Cc1ccc(-c2nc(SCc3nc4cc(Cl)c(Cl)cc4[nH]3)[nH]c(=O)c2C#N)cc1` — outcome as called in the assay?
Result block: n

Query block: Which outcome did this test record for the compound `O=C(Nc1ncc(Cc2cc(C(F)(F)F)ccc2Cl)s1)c1cccs1` ?
Result block: n

Query block: Tell me the assay call for `Cc1ccc(/C=C/C(=O)c2cccc(OCCCOc3cccc(C(=O)/C=C/c4ccc(C)cc4)c3)c2)cc1` please.
Result block: n

Query block: What is the recorded call for this compound in the test? `COc1cc(C(=O)n2nc(N3CCOCC3)c3cc(-n4cccc4)ccc32)cc(OC)c1OC`
Result block: n

Query block: Hello, I am checking results. What call was entered for `O=C1/C=C/[C@@H](O)[C@@H]2C[C@@H](O)C[C@H]2/C=C/CCC[C@@H](O)CCO1` ?
Result block: n

Query block: Each compound tested received a call. Report the one for C#CC#CC#CC#CC#CC#CC#CC#CCC1OC[C@H](COC(=O)O[C@@H](C(=O)O[C@H]2C[C@@]3(O)[C@@H](OC(=O)c4ccccc4)[C@@H]4[C@]5(OC(C)=O)CO[C@@H]5C[C@H](O)[C@@]4(C)C(=O)[C@H](OC(C)=O)C(=C2C)C3(C)C)[C@@H](NC(=O)c2ccccc2)c2ccccc2)O1 (some centres undefined) .
Result block: n

Query block: Query: recorded result category for `Cc1ccc(C)c(/C=C2\CN(C(=O)OC(C)(C)C)C/C(=C\c3cc(C)ccc3C)C2=O)c1` in this test
Result block: n

Cited source: PubChem BioAssay (NCI)
